SYSTEM_TESTED: T1, LILRB2 (UniProt Q8N423 22-460, limits assumed)
T1 construct: Panning used recombinantly expressed LILRB2-His; also called Leukocyte Immunoglobulin-like Receptor subfamily B member 2; LILRB2-His
EXPERIMENT: BLI, Octet Red96
ENDPOINT: koff (s⁻¹)
Dear colleague, please return just the value in s⁻¹, with no unit written.

Challenge: Given the entry NeuB2-40 (antibody, V domains shown, also called Ab40; 40-HC/40-LC) VH: QVQLVQSGAEVKKPGASVKVSCKASGYTFTNYGISWVRQAPGQGLEWMGWISGDAGDTKFAQKFQGRVTMTTDTSTTTTYMELRSLRSDDTAVYYCARDGEYIPMFRGFDNYYGLDVWGQGTTVTVSS VL: QPVLTQPPSVSEAPRQRVTISCSGSSSNIGKNAVNWYQQFPGKAPKLLIYYDDLLPSGVSDRFSGSRSGTSASLAISGLQSEDEADYYCAAWDDRLKGYVFGTGTQLTVL , report its measured koff.
Response given: 0.00471

Challenge: Given the entry NeuB2-55 (antibody, V domains shown, also called Ab55; 55-HC/55-LC) VH: EVQLVQSGAEVKKPGSSVKVSCKASGGTFSSYAISWVRQAPGQGLEWMGGIIPIFGTANYAQKFQGRVTITADESTSTAYMELSSLRSEDTAVYYCARGVDQVDYWGQGTLVTVSS VL: QAVVTQPASVSGSPGQSITISCTGTSSDVGGYNYVSWYQQHPGKAPKLMIYDVSNRPSGVSNRFSGSKSGNTASLTISGLQAEDEADYYCSSYTSSSTPYVFGTGTKVTVL , report its measured koff.
Response given: 0.00723

Values compiled from patent US20240392001A1.
